# measured on: T1, hDEP1 Peptide #4 (human, also: conjugated to BSA)
# T1 construct: also called hDEP1 Peptide #4/BSA
# T1 peptide: ADVLKYTYEDFKKGASDT
# protocol notes: ELISA, soluble scFv produced in microtiter plate
Ends that are not written are not given here.
measure: binding result

binder	experimental value
5738-10-R4A-G4 (scFv, V domains shown, anti-hDEP1 scFv, rat 10 library, format VH/VL-6xHis-Flag) VH: EVQLQQSGVELAKPGSSVKISCKASGYTFTSDSISWIKQTTGQGLEYIGYIHPGSGVTNYNEKFRGKATLTVDKSSSTAFMQLSSLTPDDSAIYYCARYFDYWGQGVMVTVSS VL: DIVMTQSPSSMSVSLGDTVTITCRASQDVGIYVNWFQQKPGKSPRRMIYRATNLADGVPSRFSGSRSGSDYSLTIASLESEDVADYHCLQYDEFPPTFGSGTKLEIK	binds
5738-10-R4A-G12 (scFv, V domains shown, anti-hDEP1 scFv, rat 10 library, format VH/VL-6xHis-Flag) VH: QVQLKESGAELAKPGSSVKISCKASGYTFTSDSISWIKQTTGQGLEYIGYIHPGSGVTNYNEKFKGKATLTVDKSSSTAFMQLSSLTPDDSAIYYCARYFDYWGQGVMVTVSS VL: DILMTQSPSSMSVSLGDTVTITCRASQDVGIYVNWFQQKPGKSPRRMIYRATNLADGVPSRFSGSRSGSDYSLTISSLESEDVADYHCLQYDEYPPTFGGGTKLELK	binds
5738-10-R4A-G11 (scFv, V domains shown, anti-hDEP1 scFv, rat 10 library, format VH/VL-6xHis-Flag) VH: QVQLQQPRAELAKPGSSVKISCKASGYTFTNYSISWIKQTTGQGLEYIGYIYPGSGDTNYNEKFKGKATLTVDKSSSTAFMQLSSLTPDDSAVYYCARYFDHWGQGTLVTVSS VL: DILMTQSPSSMSVSLGDTVTITCRASQDVGIYVNWFQQKPGKSPRRMIYRATTLADGVPSRFSGSRSGSDYSLTISSLESEDVADYHCLQYDEYPPTFGSGTKLEIK	binds
